tested on: MCF7 breast; experiment: NCI tumour cell line growth inhibition, 48 h

compound	lt gt eq	TGI, µM
O=C1C=CC(=O)c2c1cc([N+](=O)[O-])c1ccoc21	=	44.3
Cc1nc2c(O)cc3c4c(=O)n(C)c(=O)n(C)c4n(Cc4ccccc4)c3c2nc1C	=	32.2
C=C[C@]1(O)CCC[C@]2(C)C(=O)CCC12C (stereo partly specified)	>	100
NC(=O)c1ccc(NS(=O)(=O)c2ccc(N)cc2)nc1	>	100
CN(C)CCCNC(=O)c1cc(NC(=O)c2cc(NS(=O)(=O)c3ccc4c(c3)C(=O)c3ccccc3C4=O)cn2C)cn1C	>	100
CCCCC(C(=O)N/N=C/c1ccc([N+](=O)[O-])o1)C(=O)N/N=C/c1ccc([N+](=O)[O-])o1	=	22.4
CCc1c2c(nc3cc4c(c(N)c13)OCO4)-c1cc3c(c(=O)n1C2)COC(=O)[C@]3(O)CC	=	0.0298
NC(=O)NC(=O)CCC(NS(=O)(=O)c1ccccc1)C(=O)NC(N)=O (stereo unspecified)	>	100
CO/[N+]([O-])=C\C(=O)N/C=C/C(=O)O	>	100
Cc1nn2c(=O)c([N+](=O)[O-])c(/C=C/c3ccco3)nc2s1	>	100
CCOC(CCCNCCCn1c2c(c3cc(OC)c(OC)cc3c1=O)C(=O)c1cc3c(cc1-2)OCO3)OCC	=	9.3
